// reported IC50 for each item listed
- ASSAYED_TARGET: T1, human PD-L1 (human, UniProt Q9NZQ7 19-239, limits assumed)
- T1 construct: also called Hu PD-L1; hPD-L1
- T1 sequence (Q9NZQ7 19-239 limits assumed): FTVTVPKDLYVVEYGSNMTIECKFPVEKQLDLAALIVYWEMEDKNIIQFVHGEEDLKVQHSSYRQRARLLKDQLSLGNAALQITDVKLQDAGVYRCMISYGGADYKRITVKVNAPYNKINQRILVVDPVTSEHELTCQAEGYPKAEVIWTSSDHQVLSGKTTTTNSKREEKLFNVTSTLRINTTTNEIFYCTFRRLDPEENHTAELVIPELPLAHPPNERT
- ASSAY_COMMENT: cell binding assay, inhibition of Hu PD-L1/PD-1 binding
Positions of bridges follow the written chain, without caps; N, C: chain ends. Non-standard residues stand in square brackets, D forms with d. NMeNle = CCCC[C@H](NC)C(=O)O; NMeA = CN[C@@H](C)C(=O)O; Sar = CNCC(=O)O
Quick reminder: number only, in nM, skip the unit.

{CH2CO}-F[NMeA]APHL[Sar]WSW[NMeNle][NMeNle]RCG-NH2 (thioether N-14; SMILES CCCC[C@H]1C(=O)N(C)[C@@H](CCCC)C(=O)N[C@@H](CCCNC(=N)N)C(=O)N[C@H](C(=O)NCC(N)=O)CSCC(=O)N[C@@H](Cc2ccccc2)C(=O)N(C)[C@@H](C)C(=O)N[C@@H](C)C(=O)N2CCC[C@H]2C(=O)N[C@@H](Cc2c[nH]cn2)C(=O)N[C@@H](CC(C)C)C(=O)N(C)CC(=O)N[C@@H](Cc2c[nH]c3ccccc23)C(=O)N[C@@H](CO)C(=O)N[C@@H](Cc2c[nH]c3ccccc23)C(=O)N1C, macrocyclic peptide, Formula I series; also called Compound 8) [Compound No. 8]: 223

Now turn to the next binder.
Request: // Input: {CH2CO}-F[NMeA]NPAL[Sar]WSW[NMeNle][NMeNle]RCG-NH2 (thioether N-14; SMILES CCCC[C@H]1C(=O)N(C)[C@@H](CCCC)C(=O)N[C@@H](CCCNC(=N)N)C(=O)N[C@H](C(=O)NCC(N)=O)CSCC(=O)N[C@@H](Cc2ccccc2)C(=O)N(C)[C@@H](C)C(=O)N[C@@H](CC(N)=O)C(=O)N2CCC[C@H]2C(=O)N[C@@H](C)C(=O)N[C@@H](CC(C)C)C(=O)N(C)CC(=O)N[C@@H](Cc2c[nH]c3ccccc23)C(=O)N[C@@H](CO)C(=O)N[C@@H](Cc2c[nH]c3ccccc23)C(=O)N1C, macrocyclic peptide, Formula I series; also called Compound 10) [Compound No. 10] . Output its IC50 only.
Result: 82

// provenance: patent US20140294898A1
